protocol-summary: Trypanosoma cruzi growth suppression in host cells – NIH3T3 host cells, beta-gal luminescence, confirmation (AID 2044);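 further: intracellular parasites grown in NIH/3T3 mouse fibroblasts as host cells; luminescent beta-galactosidase reporter signal from transgenic T. cruzi replicating inside host cells; inhibitors lower the luminescence signal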
Type: functional, cell-based
Active and inactive are the calls of the source. No stated cut-off is given here; in the data, actives have a measured EC50 and inactives only a lower limit.
experimental-endpoint: EC50

• O=C(NCc1cn(-c2ccccc2)nc1-c1ccc(F)cc1)c1cccc([N+](=O)[O-])c1 = 805 nM (active)
• CCCCSc1nc2ccc(Nc3nc(N4CCOCC4)nc(N4CCOCC4)n3)cc2s1 = 1450 nM (active)
• CN(C)CCCNC(=O)c1ccc(-c2nc(-c3ccc(Cl)cc3)cs2)cc1 = 738 nM (active)

Quick one: EC50 for CCc1ccc(N/C(SCc2cccc(F)c2)=C(/C#N)C(=O)NCc2ccco2)cc1 ? 1700 nM (active)

Quick one: EC50 for O=C(CCN1CCN(c2ccccc2)CC1)c1ccc(Br)cc1 ? 1850 nM (active)

Quick one: EC50 for Cc1ccc(C)c(NC(=N)Nc2nc(C)cc(C)n2)c1 ? 1200 nM (active)

Quick one: EC50 for Cc1ccccc1-n1c(SCC(=O)N/N=C/c2c(C)nn(-c3ccccc3)c2C)nc2ccccc2c1=O ? 1600 nM (active)

Quick one: EC50 for O=C(Nc1ccncc1)c1ccc(-c2ccccc2)cc1 ? 1440 nM (active)

Quick one: EC50 for Cc1cccc2cc(CN(Cc3ccc(F)cc3)Cc3nnnn3C3CCCC3)c(O)nc12 ? 2380 nM (active)

Quick one: EC50 for Cc1ccc(N/C(SCc2ccccc2C)=C(/C#N)C(=O)NCc2ccco2)cc1C ? 1300 nM (active)

Quick one: EC50 for Clc1ccc(SCCOCCN2CCOCC2)cc1 ? 803 nM (active)

Quick one: EC50 for O=c1cc(-c2c(F)c(F)c(F)c(F)c2F)oc2c(F)c(F)c(F)c(F)c12 ? 663 nM (active)

Quick one: EC50 for CC1=C(C(=O)N2CCc3ccccc32)C2(CCC(C)CC2)OC1=O (configuration not stated) ? 2670 nM (active)

Quick one: EC50 for Fc1ccc(C2c3[nH]c4ccccc4c3CCN2Cc2cccn2-c2ncccn2)cc1 (configuration not stated) ? 1700 nM (active)

Quick one: EC50 for COc1ccc(CCN=C(S)NCc2ccc(Cl)c(Cl)c2)cc1OC ? 2050 nM (active)

Quick one: EC50 for CC1(C)CC2CC(C)(CN2S(=O)(=O)c2ccc(C(=O)Nc3ccc(S(=O)(=O)N4CCOCC4)cc3)cc2)C1 (configuration not stated) ? 1830 nM (active)

Quick one: EC50 for C=CCc1cc(Cl)ccc1OCCNCCN1CCOCC1 ? 136 nM (active)

Quick one: EC50 for CC(C)CCNC(=O)CN=C(S)N(Cc1ccccc1)Cc1cccnc1 ? 650 nM (active)

Quick one: EC50 for O=C(COc1ccc(F)cc1Cl)Nc1nc(-c2ccccn2)cs1 ? 1570 nM (active)

Quick one: EC50 for Cc1cc(N2CCN(C)CC2)nc2ccc(NC(=O)c3ccccc3F)cc12 ? 1020 nM (active)

Quick one: EC50 for CCOC(=O)c1cc(-c2ccccc2)sc1NC(=O)CN1C(=O)NC(CC)(c2ccc(F)cc2)C1=O (configuration not stated) ? 2210 nM (active)

Quick one: EC50 for CC1CCCCN1C(=O)C(=O)c1cn(CC(=O)N2CCCCCC2)c2ccccc12 (configuration not stated) ? 1490 nM (active)
